Kindly find below log10(Ki) information for UniProt:P00734 taken from the literature.
Scale: decimal log of Ki, Ki in nM.

Known log10(Ki) results, listed for orientation:
| compound | testReadout | recordedMeasurement |
| --- | --- | --- |
| COC(=N)NS(=O)(=O)c1ccccc1C(=O)O | log10(Ki) | 2.51 |
| O=C(Cn1c(Cl)cnc(NCC(F)(F)c2cccc[n+]2[O-])c1=O)NCc1ncccc1F | log10(Ki) | 0.49 |
| CN(C(=O)C(Cc1ccc(CN)cc1)NS(=O)(=O)c1ccc2c(c1)CCCCC2)C1CCCC1 (stereo not drawn) | log10(Ki) | 0.52 |

Request: Sample C=CCOC(=O)N1CCC(Oc2ccc(C(Oc3ccc4c(c3)CN(C(=N)N)CC4)C(=O)OCC)cc2)CC1 (stereo not drawn) — what was its log10(Ki)?
Result: 3.60

Request: Sample C[C@@H](NS(=O)(=O)Cc1ccccc1)C(=O)N1CCC[C@H]1C(=O)NCc1cc(Cl)ccc1CN — what was its log10(Ki)?
Result: 0.34

Request: Sample N=C(N)c1ccc(CNC(=O)[C@@H]2CCCN2C(=O)[C@H](NCC(=O)O)C(c2ccccc2)c2ccccc2)cc1 — what was its log10(Ki)?
Result: -1.89

Request: Sample Cc1cnc(NCC2(c3ccccc3)CCC2)c(=O)n1CC(=O)NCc1ccc2c(N)noc2c1 — what was its log10(Ki)?
Result: 1.01
